experiment: Human HepG2 cell viability assay in 384 well format; format: toxicity, cell-based; design: dose 125 nL, time 70.5 hour; concentration not given beside the values; conditions: HepG2 cells, read-out: Inhibition
Catalogue of cytotoxicity at 70.5 h values

[
  {
    "molecule": "CCOc1cccnc1C(=O)N1CC=C(c2ccc(O)cc2)CC1",
    "cytotoxicity at 70.5 h / %": -7.65
  },
  {
    "molecule": "CSc1ncccc1C(=O)N(CCO)Cc1ccccc1",
    "cytotoxicity at 70.5 h / %": -0.362
  },
  {
    "molecule": "CSCC(=O)N1CCOC(c2nc(C(C)(C)C)n[nH]2)C1 (stereo unspecified)",
    "cytotoxicity at 70.5 h / %": -0.6
  },
  {
    "molecule": "Cc1ccc(-c2cc(-c3nc(CN4CCN(C)CC4)no3)n[nH]2)cc1",
    "cytotoxicity at 70.5 h / %": 22.4
  },
  {
    "molecule": "Cc1ccc(CN(C(=O)c2cccc(NC(N)=O)c2)C2CC2)o1",
    "cytotoxicity at 70.5 h / %": -10.5
  },
  {
    "molecule": "C1CCC(N2CCCN(c3nc(C4CC4)no3)CC2)C1",
    "cytotoxicity at 70.5 h / %": 0.93
  },
  {
    "molecule": "CCn1ccc(-c2nnc(SCC(=O)NCC(C)C)n2CC)n1",
    "cytotoxicity at 70.5 h / %": -10.3
  },
  {
    "molecule": "COCCC(=O)N1CCN(C)c2ncccc2C1",
    "cytotoxicity at 70.5 h / %": -6.73
  },
  {
    "molecule": "O=C1OCCC1N1CCN(c2ccc(O)cc2)CC1 (stereo unspecified)",
    "cytotoxicity at 70.5 h / %": 10.3
  },
  {
    "molecule": "Cn1cc(S(=O)(=O)NC(=O)C2(c3cccc(Cl)c3)CC2)cn1",
    "cytotoxicity at 70.5 h / %": -10.1
  },
  {
    "molecule": "CC(C)(C)CC(=O)N1C[C@@H]2C[C@H]1CN2",
    "cytotoxicity at 70.5 h / %": -8.19
  },
  {
    "molecule": "COCCN1CCN(Cc2ccco2)Cc2ccc(C)nc21",
    "cytotoxicity at 70.5 h / %": 2.35
  },
  {
    "molecule": "COc1ncc(NS(=O)(=O)c2ccc(OC)c(C)c2)c(OC)n1",
    "cytotoxicity at 70.5 h / %": 7.97
  },
  {
    "molecule": "Cn1ccc(C(=O)N2CCC(Cc3cccc4ncccc34)C2)n1 (stereo unspecified)",
    "cytotoxicity at 70.5 h / %": -1.84
  },
  {
    "molecule": "O=C(NS(=O)(=O)c1cnn(-c2ccccc2F)c1)c1ccco1",
    "cytotoxicity at 70.5 h / %": 1.58
  },
  {
    "molecule": "CN(C)CCN1C(=O)CCCC12CCCN(Cc1cccs1)C2 (stereo unspecified)",
    "cytotoxicity at 70.5 h / %": -9.38
  },
  {
    "molecule": "CCc1ncc(C(=O)NCCN(C)S(C)(=O)=O)cn1",
    "cytotoxicity at 70.5 h / %": 17.2
  },
  {
    "molecule": "CCN(C(c1cccnc1)c1cc(C)cc(C)c1)S(C)(=O)=O (stereo unspecified)",
    "cytotoxicity at 70.5 h / %": -9.96
  },
  {
    "molecule": "COCCN1CCCN(C(=O)NC(C)Cn2ccnc2)CC1 (stereo unspecified)",
    "cytotoxicity at 70.5 h / %": 2.76
  },
  {
    "molecule": "COc1ccc2c(=O)n(CC3CCCN(C)C3)ccc2c1OC (stereo unspecified)",
    "cytotoxicity at 70.5 h / %": 10.5
  },
  {
    "molecule": "Cc1nc(CN(C)C(=O)Nc2cnn(CC3CCCO3)c2)cs1 (stereo unspecified)",
    "cytotoxicity at 70.5 h / %": -1.56
  },
  {
    "molecule": "Nc1ncncc1-c1noc([C@@H]2CCCN2CCCc2ccccc2)n1",
    "cytotoxicity at 70.5 h / %": -6.26
  },
  {
    "molecule": "COCCN1CCC2(CC1)CC(NC(=O)COC)c1ccccc1O2 (stereo unspecified)",
    "cytotoxicity at 70.5 h / %": -7.59
  },
  {
    "molecule": "CCC(CO)N(Cc1ccco1)C(=O)c1sccc1NC(C)=O (stereo unspecified)",
    "cytotoxicity at 70.5 h / %": -5.95
  },
  {
    "molecule": "O=C(c1cc(Cl)c2c(c1)OCO2)N1CCN(c2ncccn2)CC1",
    "cytotoxicity at 70.5 h / %": 30.1
  },
  {
    "molecule": "CCCN1CCN(S(=O)(=O)c2ncn(C)c2Cl)CC1",
    "cytotoxicity at 70.5 h / %": -4.77
  },
  {
    "molecule": "O=C(Cc1ccc(F)cc1)N1CCn2cc(Cn3cccn3)nc2C1",
    "cytotoxicity at 70.5 h / %": -1.99
  },
  {
    "molecule": "Cc1nn(C)c(C)c1C1COCCN1C(=O)c1ccccc1 (stereo unspecified)",
    "cytotoxicity at 70.5 h / %": 22.5
  },
  {
    "molecule": "CN(C)CC1CSCCCN1S(=O)(=O)c1ccc(C(F)(F)F)cc1 (stereo unspecified)",
    "cytotoxicity at 70.5 h / %": -3.11
  },
  {
    "molecule": "Cc1cc(N2CCC(CO)(CC3CCCCO3)CC2)nc2ccccc12 (stereo unspecified)",
    "cytotoxicity at 70.5 h / %": -9.32
  },
  {
    "molecule": "Cc1cccc(C2CCCN(C(=O)C3CCN(CC(N)=O)CC3)C2)c1 (stereo unspecified)",
    "cytotoxicity at 70.5 h / %": -17.7
  },
  {
    "molecule": "CN1CCN(C(=O)c2cc(-c3cccs3)cs2)CC1",
    "cytotoxicity at 70.5 h / %": -10.5
  },
  {
    "molecule": "CCN(CC)S(=O)(=O)NCC1Cc2ccccc2O1 (stereo unspecified)",
    "cytotoxicity at 70.5 h / %": -3.76
  },
  {
    "molecule": "C[C@@H]1CN(Cc2ccccc2)CCN1C(=O)NCc1nccs1",
    "cytotoxicity at 70.5 h / %": 0.13
  },
  {
    "molecule": "Cc1cnn(CC2CCCN2C(=O)c2nccnc2N)c1 (stereo unspecified)",
    "cytotoxicity at 70.5 h / %": -6.62
  },
  {
    "molecule": "O=C(Cc1ccccn1)N1CCC(O)(Cn2ccc3ccncc32)CC1",
    "cytotoxicity at 70.5 h / %": -6.87
  }
]

Origin of measurements: ChEMBL document CHEMBL3507680
